target_or_test_system: T1, IL-18 receptor (IL-18Rα/IL-18Rβ) overexpressed on HEK-Blue IL-18 cells (Homo sapiens (Human), UniProt Q13478 19-541; O95256 20-599)
T1 sequence 1: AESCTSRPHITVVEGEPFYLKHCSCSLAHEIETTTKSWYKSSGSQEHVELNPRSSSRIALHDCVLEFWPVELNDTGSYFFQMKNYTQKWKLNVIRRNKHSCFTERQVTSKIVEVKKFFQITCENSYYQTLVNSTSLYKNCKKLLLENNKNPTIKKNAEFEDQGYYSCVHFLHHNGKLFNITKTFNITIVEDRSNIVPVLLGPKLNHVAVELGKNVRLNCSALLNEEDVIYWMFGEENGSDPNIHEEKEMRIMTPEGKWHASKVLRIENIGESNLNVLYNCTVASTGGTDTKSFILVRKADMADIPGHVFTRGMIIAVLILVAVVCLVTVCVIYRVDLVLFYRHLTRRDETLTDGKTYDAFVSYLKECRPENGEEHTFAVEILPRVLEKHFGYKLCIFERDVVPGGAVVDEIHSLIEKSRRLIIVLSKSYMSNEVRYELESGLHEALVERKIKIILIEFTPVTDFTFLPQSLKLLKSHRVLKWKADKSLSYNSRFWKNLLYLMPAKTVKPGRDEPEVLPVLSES
T1 sequence 2: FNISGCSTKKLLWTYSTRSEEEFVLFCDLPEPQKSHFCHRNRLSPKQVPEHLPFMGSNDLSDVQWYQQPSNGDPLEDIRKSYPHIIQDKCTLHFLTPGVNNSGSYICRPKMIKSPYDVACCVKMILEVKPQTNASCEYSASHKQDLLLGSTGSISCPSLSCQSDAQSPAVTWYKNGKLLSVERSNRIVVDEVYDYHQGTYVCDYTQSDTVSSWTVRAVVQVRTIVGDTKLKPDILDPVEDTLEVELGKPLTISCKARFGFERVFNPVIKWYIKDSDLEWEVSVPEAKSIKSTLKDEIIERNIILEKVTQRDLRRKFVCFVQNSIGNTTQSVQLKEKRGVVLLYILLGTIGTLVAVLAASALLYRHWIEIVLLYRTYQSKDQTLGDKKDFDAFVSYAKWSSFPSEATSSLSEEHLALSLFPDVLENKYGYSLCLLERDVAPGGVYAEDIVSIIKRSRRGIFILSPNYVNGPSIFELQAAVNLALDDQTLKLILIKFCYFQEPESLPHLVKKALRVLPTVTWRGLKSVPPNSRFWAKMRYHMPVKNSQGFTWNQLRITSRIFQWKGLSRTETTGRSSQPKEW
assay_remarks: cell-based or functional assay
readout_label: HEK-Blue IL-18: Fold over Background (fold)
Give your result in fold as a bare value.

Endpoint output: HEK-Blue IL-18: Fold over Background of DGL249 (bispecific antibody, V domains shown) V domain 1: QVQLVESGGGLVQPGGSLRLSCTASGSDLHHYAIGWFRQAPGKEREGVSCISTTGAGTNYADSVKGRFTISRDNAKNTVYLQMDSLKPEETAVYYCAADGPSAIAGCVRTVASMYRYWGQGAQVTVSS V domain 2: QLQLVESGGGLVQAGGSLRLSCAASRSITFSHNVMGWYRQAPGKQRELVASIGSGGSTNYVDSVKGRATISRDNAKKTVYLQMNSLKPEDTAVYYCGVVVGVYRGSLGQGTQVTVSS . Value?
0.5

Endpoint output: HEK-Blue IL-18: Fold over Background of DGL305 (bispecific antibody, V domains shown) V domain 1: EVQLVESGGGLVQPGGSLRLSCAASGSIFSINAMGWYRQAPGKQREVVATSTGGGMTNYADSVKGRFTISRDNAKNTVYLQMNSLKPEDTAVYYCNADKDPFFPGDYWGQGTQVTVSS V domain 2: QVQLQESGGGLVQPGGSLGLSCAASGIKISVNSMAWYRQAPGERREMVAVISSGGSAVYADSVKGRFTISRDNAKNMVYLQMNSLKPEDTAVYYCHPGSAAYRDYWGQGTQVTVSS . Value?
1.1

Endpoint output: HEK-Blue IL-18: Fold over Background of DGL303 (bispecific antibody, V domains shown) V domain 1: QVQLQESGGGLVQPGGSLRLSCAASGFIFSNWYMRWVRQAPGEGLEWVSSINSGGDDTDYADSVKGRFTISRDNAKGTLYLQMHSLKPEDTALYYCERGADRVRGQGTQVTVSS V domain 2: QVQLVESGGGLVLPGESLRLSCVVSGTIDNINSMGWYRQAPGKQRELVAYITKLGSANYADSVEGRFTISRDNAKKTVHLQMNSLKPEDTAVYYCHANERGRITWAQGTQVTVSS . Value?
4.4
